# Tested on: SK-MEL-5 melanoma
# measurement.protocol: NCI-60 one-dose screen, 48 h (100 = growth as untreated, 0 = no growth, -100 = all killed)
# particulars: 10 µM unless noted
The panel holds about 83,000 compounds, 20% with a hit somewhere; the sample as a whole holds those more often.
We label by threshold. Values of growth strictly beneath 30% are 1.0. Values of 30% and up are 0.0.

Clc1ccc(-c2nnc(COc3ccccc3Cl)o2)cc1 = 0.0

QUERY: A record lists Cc1nc2nc(N)nc(N)c2nc1C . Is its growth below 30%?
RESULT: 0.0

QUERY: A record lists Cc1ccc(SCN2CCN(c3cccc(Cl)c3)CC2)cc1 . Is its growth below 30%?
RESULT: 0.0

QUERY: A record lists O=C(CN1CCN(c2cc3c(cc2F)c(=O)c(C(=O)O)cn3C2CC2)CC1)Nc1nc(-c2ccc(Cl)cc2)cs1 . Is its growth below 30%?
RESULT: 1.0

QUERY: A record lists Nc1nc2c(c3ncccc13)C(c1ccc(Cl)c(Cl)c1)Cc1ncccc1-2 (stereo unspecified) . Is its growth below 30%?
RESULT: 1.0

QUERY: A record lists O=c1c2cccc3c(Nc4ccccn4)ccc(c32)c2nc3ccccc3n12 . Is its growth below 30%?
RESULT: 0.0

QUERY: A record lists CS(=O)(=O)c1c(Nc2ccccc2)n[nH]c1N . Is its growth below 30%?
RESULT: 0.0

QUERY: A record lists Cc1ccc(C2CC3c4ccccc4C2C2CCCCN32)cc1 (stereo unspecified) . Is its growth below 30%?
RESULT: 0.0

QUERY: A record lists Oc1ccc(Nc2nccc(-c3ccc4ccccc4c3)n2)cc1 . Is its growth below 30%?
RESULT: 0.0

QUERY: A record lists O=C1C=CC(=O)c2c1nc1n2CCCC1 . Is its growth below 30%?
RESULT: 1.0

QUERY: A record lists CCOC(=O)c1c2c(n3ccc(NC(=O)CCN(CC)CC)cc13)C(=O)c1ncccc1C2=O . Is its growth below 30%?
RESULT: 0.0

QUERY: A record lists COc1ccc(-c2cnoc2-c2cc(OC)c3c(c2)OCCO3)cc1 . Is its growth below 30%?
RESULT: 1.0

QUERY: A record lists Cc1cc(=O)oc2cc(Oc3nc(-c4ccc(Cl)cc4)cn4c(-c5ccc(Cl)cc5)cnc34)ccc12 . Is its growth below 30%?
RESULT: 0.0

QUERY: A record lists CC(=O)Nc1ccc2c(c1)c(NC(C)=O)nn2C(=O)Nc1ccc(Cc2ccccc2)cc1 . Is its growth below 30%?
RESULT: 0.0

QUERY: A record lists COc1ccc(/C(=C/c2ccc3ccccc3c2)c2nn[nH]n2)cc1OC . Is its growth below 30%?
RESULT: 1.0

* * *

# System: 786-0 renal
# measurement.protocol: NCI-60 one-dose screen, 48 h (100 = growth as untreated, 0 = no growth, -100 = all killed)
# particulars: 10 µM unless noted
The panel holds about 83,000 compounds, 20% with a hit somewhere; the sample as a whole holds those more often.
recorded.endpoint: growth (%)
Report the figure in % without appending any unit label.

CC1(C)CC(=O)C(c2c(-c3ccccc3)[nH]c3[nH]c(=S)[nH]c(=O)c23)=C(O)C1 = 104
COc1cc(-c2nc3ccccc3s2)ccc1NC(=O)COc1ccc(Cl)cc1 = 16.8

Next compound, growth to be filled in.
QUERY: Name the recorded growth for NCCN1CCN(c2nccc(-c3ccc4ccccc4c3)n2)CC1 .
RESULT: 47.6
